experimentNotes: protease stability score; higher = more stable; yeast display proteolysis, trypsin and chymotrypsin;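 note: log10 excess protease needed over predicted unfolded state with 0 meaning unfolded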
Exercise: state measured protease stability score for each of the sequences provided.

residues | protease stability score
DEKETQKLLEKLAKYFVNGDLEKVKKVGKEDVEVEYGSERKHGPDAMKEHVETHKRLGIEVRYEEVHVEGDTVTAKVQADVAGHTAEMTVVYQAQGRRVDKVKLKYSEKAQKAIKHG | -0.133
DEENQQDYARKMNEMIVQNDPDEALRLFDPNVKVDIGDTRIDGRHDLERWVEDLKKQVDHVQLHDVKFRGDHASIHIEMTVNGRTISQIYHIVFHNGKAKEMKVETK | 0.567

q: For the sequence `DTRTDLRVAEKAAKAFHTNDPEKFKKQADPNAKAQYGDKTVHGMEDIVTRLKKFKDRVDHLRLNDIKSTGEKVDLNIQINVNGKNVEAKIDFHVRNGRLKTMKVDPNAVDAYRS` , what protease stability score is on record?
a: -0.19
